This collection of values is drawn from the supplement of paper PMC6757056.

Please go through the items and note down their normalized RNA/DNA level with ligand (log10).
B1: library; a variant is named by its letters at N, in order (parent)
chain: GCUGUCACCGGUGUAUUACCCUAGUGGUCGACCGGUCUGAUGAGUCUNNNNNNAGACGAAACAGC

Variants of: B1
protocol summary: normalized RNA/DNA level with ligand (relative to sTRSVctl = 100) (log10 (% of sTRSVctl)); ligand: hypoxanthine (xanthine aptamer); higher = less ribozyme self-cleavage, higher mRNA level
measurement context: ligand concentration (+) RNA-Seq: 5 mM, HEK293T, reporter: mCherry (pCS4076), ligand present: yes
One number for each entry.

Example variants with recorded normalized RNA/DNA level with ligand (log10):
mutation=AUUGUA recorded_result=1.89
mutation=CGACGU recorded_result=1.96
mutation=UCUCAG recorded_result=1.82
mutation=UGAUCA recorded_result=1.98
mutation=GUGUUG recorded_result=1.83
mutation=ACUUCU recorded_result=1.91

Batch of 7 variants: report normalized RNA/DNA level with ligand (log10) for each.
1. CCACGA
2. ACGGUG
3. UGAAAC
4. GCCUAU
5. UUAUCC
6. UGAGAU
7. AGAUGC

Reply:
[1.95, 1.87, 1.91, 1.94, 1.96, 1.89, 1.96]
